Taken from patent US11214803B2.

- TEST_PROTOCOL: Tolerability in Balb/c mice, body and organ weights (Example 10)
- Type: in vivo
- CONDITIONS: 50 mg/kg subcutaneously twice a week for four weeks, end of study
Strand notation (5' to 3'): a small letter for the sugar, then the base; units joined by * are phosphorothioate-linked, units joined directly phosphodiester-linked; [ ] holds rarer units or linkages, { } end groups; capitals alone tell only the bases. k = constrained ethyl (cEt); [5mC] = 5-methylcytosine; d = 2'-deoxy (DNA)
Task for the reader: assign each of the following substances its reported Liver weight.
One number for each entry, in g.

As a guide, the following entries are already answered.
- SUBSTANCE: "715558 (k[5mC]*kA*kG*dG*dA*dA*dG*dT*dT*dA*dT*dT*d[5mC]*kA*kG*k[5mC]; antisense) [compound 715558]"
  MEAS_VALUE: 1.33
- SUBSTANCE: "715491 (kA*kA*k[5mC]*d[5mC]*dA*dA*d[5mC]*dT*dA*dT*dT*dA*d[5mC]*kT*kT*k[5mC]) [compound 715491]"
  MEAS_VALUE: 1.03

Quick batch: Liver weight for everything below.
1. 715582 (kG*kT*k[5mC]*dA*dA*dG*d[5mC]*d[5mC]*dT*dG*dT*d[5mC]*dT*kG*kG*kA; antisense) [compound 715582]
2. 715484 (kT*kA*k[5mC]*dT*d[5mC]*dT*dT*dT*dG*dG*dA*dA*dA*k[5mC]*k[5mC]*kA; antisense) [compound 715484]
3. 715487 (kA*kT*kT*dA*d[5mC]*dT*dT*d[5mC]*dA*dT*dA*dG*d[5mC]*kT*kT*kA) [compound 715487]
4. 715557 (kG*kG*kA*dA*dG*dT*dT*dA*dT*dT*d[5mC]*dA*dG*k[5mC]*kA*kG; antisense) [compound 715557]

1.46
1.47
1.24
1.96

###

- Tested on: Yap1 mRNA
- TEST_PROTOCOL: Dose-dependent inhibition of human Yap1 in A-431 cells (Example 8, 10,000 cells per well, RTS4814)
- Assay type: cell-based
- CONDITIONS: 2000.00 nM; A-431 cells, 10,000 cells per well, free uptake, approximately 48 hours, RTS4814
Strand notation (5' to 3'): a small letter for the sugar, then the base; units joined by * are phosphorothioate-linked, units joined directly phosphodiester-linked; [ ] holds rarer units or linkages, { } end groups; capitals alone tell only the bases. k = constrained ethyl (cEt); [5mC] = 5-methylcytosine; d = 2'-deoxy (DNA)
ENDPOINT: Yap1 mRNA, % UTC (% UTC)
One number for each entry, in % UTC.

- SUBSTANCE: "1074630 (antisense kA*kG*kA*dG*dA*dT*dT*dT*dT*dA*dT*dG*d[5mC]*k[5mC]*kT*kG) [compound 1074630]"
  TESTED_ON: "Yap1 mRNA"
  UNIT_ANNOTATION: "% UTC"
  Yap1 mRNA, % UTC: 6

# return Yap1 mRNA, % UTC for each item in the list
1. 1074480 (kT*k[5mC]*kA*dT*dT*dT*dG*d[5mC]*d[5mC]*dT*dA*dG*dG*kT*kT*k[5mC]; antisense) [compound 1074480]
2. 1076393 (antisense k[5mC]*kT*kT*dT*dA*d[5mC]*dT*dT*dA*d[5mC]*dT*dG*dG*kT*kG*kG) [compound 1076393]

[3, 5]

###

- System: Yap1 mRNA
- TEST_PROTOCOL: Antisense inhibition of human Yap1 in A-431 cells by cEt gapmers, single dose (Example 3, RTS36584)
- Assay type: cell-based
- CONDITIONS: Table 12; A-431 cells, 5,000 cells per well, free uptake, 2,000 nM modified oligonucleotide, approx. 48 hours; RTS36584; normalized to RIBOGREEN; Yap1 mRNA relative to untreated control cells
- Experimental: Modified oligonucleotides were designed to target a Yap1 nucleic acid and were tested for their effect on Yap1 mRNA level in vitro. The modified oligonucleotides were tested in a series of experiments that had similar culture conditions. […] After a treatment period of approximately 48 hours, RNA was isolated from the cells and Yap1 mRNA levels were measured by quantitative real-time RTPCR. […] Yap1 mRNA levels were normalized to total RNA content, as measured by RIBOGREEN®. […]
Strand notation (5' to 3'): a small letter for the sugar, then the base; units joined by * are phosphorothioate-linked, units joined directly phosphodiester-linked; [ ] holds rarer units or linkages, { } end groups; capitals alone tell only the bases. k = constrained ethyl (cEt); [5mC] = 5-methylcytosine; d = 2'-deoxy (DNA)
Short version: YAP1 (% UTC) at least 8 % UTC is y, less is n.

Below, 3 substances whose answers are already recorded.
- SUBSTANCE: "958774 (antisense kT*kG*k[5mC]*dT*dA*dG*dA*dT*dA*dT*d[5mC]*dG*d[5mC]*k[5mC]*kA*kA) [Compound 958774]"
  TESTED_ON: "Yap1 mRNA"
  CLASS_LABEL: "y"
- SUBSTANCE: "958724 (antisense kT*k[5mC]*kA*dG*dT*dT*dA*dT*d[5mC]*d[5mC]*dT*dA*dT*k[5mC]*k[5mC]*k[5mC]) [Compound 958724]"
  TESTED_ON: "Yap1 mRNA"
  CLASS_LABEL: "n"
- SUBSTANCE: "958454 (antisense kG*kG*kA*dA*dT*dG*dA*dG*d[5mC]*dT*d[5mC]*dG*dA*kA*k[5mC]*kA) [Compound 958454]"
  TESTED_ON: "Yap1 mRNA"
  CLASS_LABEL: "n"

Test whether the substance 958694 (antisense kA*kT*kT*dG*dG*dT*dG*dG*dT*dG*dT*d[5mC]*dT*k[5mC]*kA*k[5mC]) [Compound 958694] records YAP1 (% UTC) of 8 % UTC or higher.
y

Entry 958659 (kG*kT*kT*dG*dT*dA*dT*dT*dA*d[5mC]*dT*d[5mC]*dT*k[5mC]*k[5mC]*kA; antisense) [Compound 958659] : is its YAP1 (% UTC) no less than 8 % UTC?
n

###

- Test system: Yap1 mRNA
- TEST_PROTOCOL: Antisense inhibition of human Yap1 in A-431 cells by cEt gapmers, single dose (Example 2, RTS4814)
- Assay type: cell-based
- CONDITIONS: Table 6; A-431 cells, 5,000 cells per well, free uptake, 2,000 nM modified oligonucleotide, approx. 48 hours; RTS4814; normalized to RIBOGREEN; Yap1 mRNA relative to untreated control cells
Strand notation (5' to 3'): a small letter for the sugar, then the base; units joined by * are phosphorothioate-linked, units joined directly phosphodiester-linked; [ ] holds rarer units or linkages, { } end groups; capitals alone tell only the bases. k = constrained ethyl (cEt); [5mC] = 5-methylcytosine; d = 2'-deoxy (DNA)
Record form. Attribute: YAP1 (% UTC). Fill in for each entry.
Give bare numbers, in % UTC.

// each listed substance needs a value for YAP1 (% UTC)
1. 716570 (kA*kA*kG*dT*dG*dT*dT*dT*dA*dG*dG*d[5mC]*dA*kA*kG*k[5mC]; antisense) [Compound 716570]
2. 716375 (kG*kA*kG*dA*d[5mC]*dT*dA*d[5mC]*dT*d[5mC]*d[5mC]*dA*dG*kT*kG*kG; antisense) [Compound 716375]
3. 716402 (kA*kT*kT*dT*dT*dG*dA*dG*dT*d[5mC]*d[5mC]*d[5mC]*dA*k[5mC]*k[5mC]*kA; antisense) [Compound 716402]
4. 716555 (kT*kA*k[5mC]*dT*dT*dT*dT*dT*d[5mC]*dA*dA*dG*dA*kT*kA*k[5mC]; antisense) [Compound 716555]
5. 716435 (kA*k[5mC]*kA*dA*d[5mC]*dT*dG*dT*dT*dG*dA*dA*d[5mC]*kA*kA*kA; antisense) [Compound 716435]
6. 716447 (k[5mC]*k[5mC]*kA*dA*d[5mC]*d[5mC]*dA*dA*d[5mC]*d[5mC]*d[5mC]*d[5mC]*d[5mC]*k[5mC]*k[5mC]*kA; antisense) [Compound 716447]
7. 716453 (kG*kG*kT*dA*dA*dA*dA*dA*dA*dA*dA*d[5mC]*d[5mC]*kA*kG*kG; antisense) [Compound 716453]
8. 716579 (kA*kT*kA*dG*dA*dG*dA*dT*dT*dT*dT*d[5mC]*d[5mC]*k[5mC]*kT*k[5mC]; antisense) [Compound 716579]

1. 56
2. 63
3. 85
4. 99
5. 45
6. 97
7. 87
8. 84

Would you mind giving YAP1 (% UTC) for every substance in the list below?
1. 716513 (antisense kA*kA*kT*d[5mC]*dT*dT*dA*dA*dT*d[5mC]*dT*dG*dT*kG*kG*k[5mC]) [Compound 716513]
2. 716468 (kT*k[5mC]*kA*dT*d[5mC]*dA*dG*dA*dT*dA*dA*dT*dA*kT*k[5mC]*kT; antisense) [Compound 716468]

1: 30; 2: 118

Quick one: give me YAP1 (% UTC) for each item below, same order please.
1. 716384 (kA*kG*kG*dA*d[5mC]*d[5mC]*dT*dG*dA*dA*dG*d[5mC]*d[5mC]*kG*kA*kG; antisense) [Compound 716384]
2. 716417 (kT*kG*kT*dA*dA*dG*dA*dA*dA*dG*d[5mC]*dT*dT*kT*k[5mC]*kT; antisense) [Compound 716417]
3. 716501 (kG*k[5mC]*kA*d[5mC]*dT*dG*dA*dA*dA*dG*dT*dA*d[5mC]*kT*kT*kA; antisense) [Compound 716501]
4. 716378 (kG*k[5mC]*kA*dG*dA*dG*dG*dT*dA*d[5mC]*dA*dT*d[5mC]*kA*kT*k[5mC]; antisense) [Compound 716378]
5. 716558 (k[5mC]*kT*k[5mC]*dT*dT*dA*d[5mC]*dA*dT*d[5mC]*dT*dA*dA*kA*kA*k[5mC]; antisense) [Compound 716558]
6. 716540 (antisense kG*kA*kA*dA*dA*dG*dT*dT*dA*dT*dT*dA*d[5mC]*kA*kA*k[5mC]) [Compound 716540]

[71, 78, 32, 44, 81, 120]
